// reported IC50 per item
- System: MV4-11
- METHOD: cells
- CONDITION_PARAMETERS: Homo sapiens, MV4-11, 48 h
- Description: Antiproliferative activity against human MV4-11 AML cells assessed as cell viability measured after 48 hrs by multiplate reader method
PROPERTY_LABEL: IC50 (nM)

INSERT INTO results (mol, meas_value) VALUES
  ('CCCNNC(=O)c1ccc(CNC(=O)c2ccc3ccccc3n2)cc1', 57.8),
  ('CCCNNC(=O)c1ccc(CNC(=O)c2nc3ccccc3s2)cc1', 43.6),
  ('CCCNNC(=O)c1ccc(CNC(=O)c2cc3cc(O)ccc3o2)cc1', 40);

* * *

- EXPERIMENTAL_SYSTEM: Histone deacetylase 9 (Homo sapiens)
- Sequence (Q9UKV0 whole entry): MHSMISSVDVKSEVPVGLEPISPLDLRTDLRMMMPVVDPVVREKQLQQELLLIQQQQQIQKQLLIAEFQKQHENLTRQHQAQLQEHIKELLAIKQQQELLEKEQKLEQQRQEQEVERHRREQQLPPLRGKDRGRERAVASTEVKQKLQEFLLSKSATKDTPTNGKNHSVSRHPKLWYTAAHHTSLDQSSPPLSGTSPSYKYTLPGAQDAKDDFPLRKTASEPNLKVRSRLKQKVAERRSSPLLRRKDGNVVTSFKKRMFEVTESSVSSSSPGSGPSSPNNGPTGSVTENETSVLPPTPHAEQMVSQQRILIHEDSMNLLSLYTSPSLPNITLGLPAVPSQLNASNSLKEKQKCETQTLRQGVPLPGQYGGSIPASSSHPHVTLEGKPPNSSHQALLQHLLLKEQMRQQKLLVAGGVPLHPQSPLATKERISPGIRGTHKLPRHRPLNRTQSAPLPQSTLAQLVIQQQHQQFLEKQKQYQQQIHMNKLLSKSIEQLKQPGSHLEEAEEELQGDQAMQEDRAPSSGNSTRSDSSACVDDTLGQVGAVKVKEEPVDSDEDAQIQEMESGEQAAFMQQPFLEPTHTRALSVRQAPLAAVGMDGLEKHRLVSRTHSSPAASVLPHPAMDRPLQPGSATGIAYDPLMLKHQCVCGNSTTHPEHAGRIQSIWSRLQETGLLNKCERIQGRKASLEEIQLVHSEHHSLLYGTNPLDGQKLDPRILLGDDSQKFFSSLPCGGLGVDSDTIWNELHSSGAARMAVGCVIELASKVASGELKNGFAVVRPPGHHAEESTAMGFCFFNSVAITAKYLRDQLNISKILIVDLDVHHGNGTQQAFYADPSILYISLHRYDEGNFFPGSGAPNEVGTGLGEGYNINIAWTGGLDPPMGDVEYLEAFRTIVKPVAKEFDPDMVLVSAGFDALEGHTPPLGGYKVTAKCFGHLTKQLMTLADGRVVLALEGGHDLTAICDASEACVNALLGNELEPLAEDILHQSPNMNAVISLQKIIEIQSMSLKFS
- METHOD: Inhibition of human recombinant HDAC9 using Boc-Lys(triflouroacetyI)-AMC substrate incubated for 2 hrs by fluorescence based assay
pIC50: −log10 of the molar value.
PROPERTY_LABEL: pIC50

INSERT INTO results (mol, property_label, meas_value) VALUES
  ('CCCNNC(=O)c1ccc(CNC(=O)c2cc3ccccc3[nH]2)cc1', 'pIC50', '< 5.30'),
  ('CCCNNC(=O)c1ccc(CNC(=O)/C=C/c2ccccc2)cc1', 'pIC50', '< 5.30');

* * *

- Tested on: MV4-11
- METHOD: cells
- CONDITION_PARAMETERS: Homo sapiens, MV4-11, 48 h
pIC50: −log10 of the molar value.
Record Y whenever pIC50 is at 7 or higher; record N when lower.

INSERT INTO assay_data (mol, experimental_system, label) VALUES
  ('CCCNNC(=O)c1ccc(CNC(=O)c2nc3ccccc3[nH]2)cc1', 'MV4-11', 'Y'),
  ('CCCNNC(=O)c1ccc(CNC(=O)c2cc3cc(Cl)ccc3o2)cc1', 'MV4-11', 'N'),
  ('CCCNNC(=O)c1ccc(CNC(=O)c2cc3cc(OC)ccc3o2)cc1', 'MV4-11', 'Y'),
  ('CCCNNC(=O)c1ccc(CNC(=O)c2cc3cc(F)ccc3o2)cc1', 'MV4-11', 'Y');

* * *

- EXPERIMENTAL_SYSTEM: Histone deacetylase 3 (Homo sapiens, UniProt O15379)
- Sequence (O15379 whole entry): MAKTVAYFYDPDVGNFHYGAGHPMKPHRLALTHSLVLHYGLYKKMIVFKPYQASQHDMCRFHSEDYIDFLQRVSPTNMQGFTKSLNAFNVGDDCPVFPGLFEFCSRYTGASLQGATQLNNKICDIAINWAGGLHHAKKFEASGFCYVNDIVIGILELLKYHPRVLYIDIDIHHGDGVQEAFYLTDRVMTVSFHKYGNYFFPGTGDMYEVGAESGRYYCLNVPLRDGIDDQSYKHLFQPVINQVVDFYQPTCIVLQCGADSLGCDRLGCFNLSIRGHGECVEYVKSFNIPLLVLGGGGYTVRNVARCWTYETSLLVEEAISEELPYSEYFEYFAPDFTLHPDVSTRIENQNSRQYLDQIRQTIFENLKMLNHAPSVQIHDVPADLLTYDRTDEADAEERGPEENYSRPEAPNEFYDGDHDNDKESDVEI
- METHOD: Non competitive type inhibition of human HDAC3 (unknown origin) by Lineweaver-Burk plot analysis
pIC50: −log10 of the molar value.
PROPERTY_LABEL: pIC50

INSERT INTO assay_data (mol, meas_value) VALUES
  ('CCCNNC(=O)c1ccc(CNC(=O)c2cc3ccccc3[nH]2)cc1', 9.25);

* * *

- METHOD: Drug distribution in tumor of BALB/c mouse xenografted with human MV4-11 cells assessed as measured after 8 hrs
- Type: ADME
- CONDITION_PARAMETERS: read-out: Ct
PROPERTY_LABEL: concentration at 8 h (ng/g)

INSERT INTO results (mol, value_units, meas_value) VALUES
  ('Cc1[nH]c2ccccc2c1CCNCc1ccc(/C=C/C(=O)NO)cc1', 'ng/g', 108);

* * *

- EXPERIMENTAL_SYSTEM: Histone deacetylase 3 (Homo sapiens, UniProt O15379)
- METHOD: Inhibition of human recombinant HDAC3 using Boc-Lys(acetyl)-AMC substrate incubated for 2 hrs by fluorescence based assay
pIC50: −log10 of the molar value.
Listing of entries alongside the reported pIC50.
PROPERTY_LABEL: pIC50

INSERT INTO results (mol, meas_value) VALUES
  ('CCCNNC(=O)c1ccc(CNC(=O)c2cnc3ccccc3c2)cc1', 8.75),
  ('CCCNNC(=O)c1ccc(CNC(=O)c2cc3cc(OC)ccc3[nH]2)cc1', 9.24),
  ('CCCNNC(=O)c1ccc(CNC(=O)c2cc3ccccc3cn2)cc1', 8.83),
  ('CCCNNC(=O)c1ccc(CNC(=O)c2cc3cc(Cl)ccc3[nH]2)cc1', 9.18),
  ('CCCNNC(=O)c1ccc(CNC(=O)c2ccc3cnccc3c2)cc1', 8.99),
  ('CCCNNC(=O)c1ccc(CNC(=O)c2cc3cc(Br)ccc3o2)cc1', 9.21);
